- conditions: in DMSO, 328.65 K
measurement kind: solubility (mole fraction)
Number only, please.

Problem: Reported solubility (mole fraction), molecule CC(=O)[C@@]12O[C@@H]1C[C@H]1[C@@H]3CCC4=CC(=O)CC[C@]4(C)[C@H]3CC[C@@]12C : ____
Solution: 0.00937

---

- conditions: in isopropanol, 327.45 K
measurement kind: solubility (mole fraction)

Problem: Request the reported solubility (mole fraction) associated with CC(=O)[C@@]12O[C@@H]1C[C@H]1[C@@H]3CCC4=CC(=O)CC[C@]4(C)[C@H]3[C@H](O)C[C@@]12C
Solution: 0.00262

---

- conditions: in DMSO, 327.15 K
measurement kind: solubility (mole fraction)
In your answer, state the number alone without any accompanying words.

Problem: # get_value(readout='solubility (mole fraction)', item= CC(=O)[C@@]12O[C@@H]1C[C@H]1[C@@H]3CCC4=CC(=O)CC[C@]4(C)[C@H]3[C@H](O)C[C@@]12C )
Solution: 0.0126
